# assaySystem: T1, human IL-23R endogenously expressed on DB cells (CRL-2289) (human, UniProt Q5VWK5 24-629)
# T1 sequence (looked up): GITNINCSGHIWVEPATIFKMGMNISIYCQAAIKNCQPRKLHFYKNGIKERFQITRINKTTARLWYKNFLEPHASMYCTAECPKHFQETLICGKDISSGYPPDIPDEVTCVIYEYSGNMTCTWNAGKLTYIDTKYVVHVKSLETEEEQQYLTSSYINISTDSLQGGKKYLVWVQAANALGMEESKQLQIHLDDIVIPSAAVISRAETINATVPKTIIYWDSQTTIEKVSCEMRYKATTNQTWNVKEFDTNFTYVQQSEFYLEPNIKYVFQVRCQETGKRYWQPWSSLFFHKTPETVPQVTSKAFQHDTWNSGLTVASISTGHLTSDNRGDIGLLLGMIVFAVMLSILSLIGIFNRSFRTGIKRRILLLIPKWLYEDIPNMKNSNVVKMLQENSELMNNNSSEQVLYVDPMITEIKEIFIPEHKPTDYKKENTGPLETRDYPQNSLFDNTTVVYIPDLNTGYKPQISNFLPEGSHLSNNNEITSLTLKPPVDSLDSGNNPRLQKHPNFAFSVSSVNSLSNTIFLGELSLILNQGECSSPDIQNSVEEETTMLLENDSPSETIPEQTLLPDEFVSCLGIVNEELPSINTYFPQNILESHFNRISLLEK
# assayInfo: cell-based or functional assay
*1 amine or outer side, *2 acyl side, *3 side chain or, on linkers, in order; H or OH if unused. Bridges are numbered along the chain shown (N, C = ends). [ ]: non-standard residue; d: D form. 2Nal = N[C@@H](Cc1ccc2ccccc2c1)C(=O)O; αMeL = CC(C)C[C@](C)(N)C(=O)O; CH2COCH2 = O=C(C[*:1])C[*:2]

binder	IC50 (pSTAT3)
Ac-DEQCWQC[2Nal]W[αMeL]KR-NH2 (lactam 2-11; linker 4-7 via CH2COCH2; SMILES CC(=O)N[C@@H](CC(=O)O)C(=O)N[C@H]1CCC(=O)NCCCC[C@@H](C(=O)N[C@@H](CCCNC(=N)N)C(N)=O)NC(=O)[C@](C)(CC(C)C)NC(=O)[C@H](Cc2c[nH]c3ccccc23)NC(=O)[C@H](Cc2ccc3ccccc3c2)NC(=O)[C@@H]2CSCC(=O)CSC[C@H](NC(=O)[C@H](CCC(N)=O)NC1=O)C(=O)N[C@@H](Cc1c[nH]c3ccccc13)C(=O)N[C@@H](CCC(N)=O)C(=O)N2) [Compound 56]	> 1 µM
